details: in water, 293.15 K
parameter: solubility (mole fraction)
Answer with a number only.

Please look at this compound and report its solubility (mole fraction): Cn1c(=O)cc(N2CCC[C@@H](N)C2)n(Cc2ccccc2C#N)c1=O.O=C(O)c1ccccc1
0.00109

* * *

details: in methanol, 293.15 K
parameter: solubility (mole fraction)

Please look at this molecule and report its solubility (mole fraction): Cn1c(=O)cc(N2CCC[C@@H](N)C2)n(Cc2ccccc2C#N)c1=O.O=C(O)c1ccccc1
0.00339

* * *

settings: in isopropanol, 283.15 K
parameter: solubility (mole fraction)
Answer with a number only.

Please look at this molecule and report its solubility (mole fraction): Cn1c(=O)cc(N2CCC[C@@H](N)C2)n(Cc2ccccc2C#N)c1=O.O=C(O)c1ccccc1
3e-05

* * *

conditions: in DMF, 298.15 K
parameter: solubility (mole fraction)
Answer with a number only.

Please look at this compound and report its solubility (mole fraction): Cn1c(=O)cc(N2CCC[C@@H](N)C2)n(Cc2ccccc2C#N)c1=O.O=C(O)c1ccccc1
0.0117

* * *

details: in n-propanol, 278.15 K
parameter: solubility (mole fraction)
Answer with a number only.

Please look at this compound and report its solubility (mole fraction): Cn1c(=O)cc(N2CCC[C@@H](N)C2)n(Cc2ccccc2C#N)c1=O.O=C(O)c1ccccc1
6.1e-05

* * *

settings: in acetonitrile, 288.15 K
parameter: solubility (mole fraction)
Answer with a number only.

Please look at this molecule and report its solubility (mole fraction): Cn1c(=O)cc(N2CCC[C@@H](N)C2)n(Cc2ccccc2C#N)c1=O.O=C(O)c1ccccc1
0.000175

* * *

conditions: in n-propanol, 318.15 K
parameter: solubility (mole fraction)
Answer with a number only.

Please look at this compound and report its solubility (mole fraction): Cn1c(=O)cc(N2CCC[C@@H](N)C2)n(Cc2ccccc2C#N)c1=O.O=C(O)c1ccccc1
0.000621

* * *

conditions: in methanol, 288.15 K
parameter: solubility (mole fraction)
Answer with a number only.

Please look at this molecule and report its solubility (mole fraction): Cn1c(=O)cc(N2CCC[C@@H](N)C2)n(Cc2ccccc2C#N)c1=O.O=C(O)c1ccccc1
0.00302

* * *

settings: in DMF, 283.15 K
parameter: solubility (mole fraction)
Answer with a number only.

Please look at this compound and report its solubility (mole fraction): Cn1c(=O)cc(N2CCC[C@@H](N)C2)n(Cc2ccccc2C#N)c1=O.O=C(O)c1ccccc1
0.00686

* * *

settings: in ethanol, 298.15 K
parameter: solubility (mole fraction)
Answer with a number only.

Please look at this molecule and report its solubility (mole fraction): Cn1c(=O)cc(N2CCC[C@@H](N)C2)n(Cc2ccccc2C#N)c1=O.O=C(O)c1ccccc1
0.000822

* * *

conditions: in acetone, 298.15 K
parameter: solubility (mole fraction)
Answer with a number only.

Please look at this molecule and report its solubility (mole fraction): Cn1c(=O)cc(N2CCC[C@@H](N)C2)n(Cc2ccccc2C#N)c1=O.O=C(O)c1ccccc1
0.00419

* * *

conditions: in isopropanol, 288.15 K
parameter: solubility (mole fraction)
Answer with a number only.

Please look at this molecule and report its solubility (mole fraction): Cn1c(=O)cc(N2CCC[C@@H](N)C2)n(Cc2ccccc2C#N)c1=O.O=C(O)c1ccccc1
4.2e-05

* * *

settings: in methanol, 303.15 K
parameter: solubility (mole fraction)
Answer with a number only.

Please look at this compound and report its solubility (mole fraction): Cn1c(=O)cc(N2CCC[C@@H](N)C2)n(Cc2ccccc2C#N)c1=O.O=C(O)c1ccccc1
0.00423

* * *

conditions: in ethanol, 293.15 K
parameter: solubility (mole fraction)
Answer with a number only.

Please look at this molecule and report its solubility (mole fraction): Cn1c(=O)cc(N2CCC[C@@H](N)C2)n(Cc2ccccc2C#N)c1=O.O=C(O)c1ccccc1
0.000682

* * *

settings: in water, 298.15 K
parameter: solubility (mole fraction)
Answer with a number only.

Please look at this compound and report its solubility (mole fraction): Cn1c(=O)cc(N2CCC[C@@H](N)C2)n(Cc2ccccc2C#N)c1=O.O=C(O)c1ccccc1
0.00119

* * *

details: in isopropanol, 278.15 K
parameter: solubility (mole fraction)
Answer with a number only.

Please look at this compound and report its solubility (mole fraction): Cn1c(=O)cc(N2CCC[C@@H](N)C2)n(Cc2ccccc2C#N)c1=O.O=C(O)c1ccccc1
1.9e-05

* * *

conditions: in isopropanol, 293.15 K
parameter: solubility (mole fraction)
Answer with a number only.

Please look at this compound and report its solubility (mole fraction): Cn1c(=O)cc(N2CCC[C@@H](N)C2)n(Cc2ccccc2C#N)c1=O.O=C(O)c1ccccc1
6.3e-05

* * *

settings: in acetone, 288.15 K
parameter: solubility (mole fraction)
Answer with a number only.

Please look at this compound and report its solubility (mole fraction): Cn1c(=O)cc(N2CCC[C@@H](N)C2)n(Cc2ccccc2C#N)c1=O.O=C(O)c1ccccc1
0.00331

* * *

details: in water, 283.15 K
parameter: solubility (mole fraction)
Answer with a number only.

Please look at this compound and report its solubility (mole fraction): Cn1c(=O)cc(N2CCC[C@@H](N)C2)n(Cc2ccccc2C#N)c1=O.O=C(O)c1ccccc1
0.000915

* * *

conditions: in ethanol, 303.15 K
parameter: solubility (mole fraction)
Answer with a number only.

Please look at this molecule and report its solubility (mole fraction): Cn1c(=O)cc(N2CCC[C@@H](N)C2)n(Cc2ccccc2C#N)c1=O.O=C(O)c1ccccc1
0.00102

* * *

conditions: in acetone, 308.15 K
parameter: solubility (mole fraction)
Answer with a number only.

Please look at this compound and report its solubility (mole fraction): Cn1c(=O)cc(N2CCC[C@@H](N)C2)n(Cc2ccccc2C#N)c1=O.O=C(O)c1ccccc1
0.00525

* * *

details: in ethanol, 288.15 K
parameter: solubility (mole fraction)
Answer with a number only.

Please look at this compound and report its solubility (mole fraction): Cn1c(=O)cc(N2CCC[C@@H](N)C2)n(Cc2ccccc2C#N)c1=O.O=C(O)c1ccccc1
0.000554

* * *

conditions: in methanol, 298.15 K
parameter: solubility (mole fraction)
Answer with a number only.

Please look at this molecule and report its solubility (mole fraction): Cn1c(=O)cc(N2CCC[C@@H](N)C2)n(Cc2ccccc2C#N)c1=O.O=C(O)c1ccccc1
0.00379

* * *

conditions: in isopropanol, 308.15 K
parameter: solubility (mole fraction)
Answer with a number only.

Please look at this compound and report its solubility (mole fraction): Cn1c(=O)cc(N2CCC[C@@H](N)C2)n(Cc2ccccc2C#N)c1=O.O=C(O)c1ccccc1
0.000175

* * *

conditions: in ethanol, 278.15 K
parameter: solubility (mole fraction)
Answer with a number only.

Please look at this compound and report its solubility (mole fraction): Cn1c(=O)cc(N2CCC[C@@H](N)C2)n(Cc2ccccc2C#N)c1=O.O=C(O)c1ccccc1
0.000355

* * *

details: in acetonitrile, 308.15 K
parameter: solubility (mole fraction)
Answer with a number only.

Please look at this molecule and report its solubility (mole fraction): Cn1c(=O)cc(N2CCC[C@@H](N)C2)n(Cc2ccccc2C#N)c1=O.O=C(O)c1ccccc1
0.000475

* * *

conditions: in acetone, 283.15 K
parameter: solubility (mole fraction)

Please look at this molecule and report its solubility (mole fraction): Cn1c(=O)cc(N2CCC[C@@H](N)C2)n(Cc2ccccc2C#N)c1=O.O=C(O)c1ccccc1
0.00293

* * *

conditions: in water, 303.15 K
parameter: solubility (mole fraction)
Answer with a number only.

Please look at this compound and report its solubility (mole fraction): Cn1c(=O)cc(N2CCC[C@@H](N)C2)n(Cc2ccccc2C#N)c1=O.O=C(O)c1ccccc1
0.00129

* * *

details: in methanol, 313.15 K
parameter: solubility (mole fraction)

Please look at this molecule and report its solubility (mole fraction): Cn1c(=O)cc(N2CCC[C@@H](N)C2)n(Cc2ccccc2C#N)c1=O.O=C(O)c1ccccc1
0.00525

* * *

settings: in acetone, 318.15 K
parameter: solubility (mole fraction)

Please look at this compound and report its solubility (mole fraction): Cn1c(=O)cc(N2CCC[C@@H](N)C2)n(Cc2ccccc2C#N)c1=O.O=C(O)c1ccccc1
0.00654

* * *

conditions: in DMF, 293.15 K
parameter: solubility (mole fraction)

Please look at this molecule and report its solubility (mole fraction): Cn1c(=O)cc(N2CCC[C@@H](N)C2)n(Cc2ccccc2C#N)c1=O.O=C(O)c1ccccc1
0.00984

* * *

settings: in DMF, 288.15 K
parameter: solubility (mole fraction)
Answer with a number only.

Please look at this molecule and report its solubility (mole fraction): Cn1c(=O)cc(N2CCC[C@@H](N)C2)n(Cc2ccccc2C#N)c1=O.O=C(O)c1ccccc1
0.00824

* * *

conditions: in n-propanol, 308.15 K
parameter: solubility (mole fraction)
Answer with a number only.

Please look at this compound and report its solubility (mole fraction): Cn1c(=O)cc(N2CCC[C@@H](N)C2)n(Cc2ccccc2C#N)c1=O.O=C(O)c1ccccc1
0.000367

* * *

details: in methanol, 308.15 K
parameter: solubility (mole fraction)
Answer with a number only.

Please look at this compound and report its solubility (mole fraction): Cn1c(=O)cc(N2CCC[C@@H](N)C2)n(Cc2ccccc2C#N)c1=O.O=C(O)c1ccccc1
0.00472
